Value source: ChEMBL document CHEMBL3868617

biological target: Prostaglandin G/H synthase 1 (Homo sapiens); experiment: Inhibition of COX-1 (unknown origin) using arachidonic acid as substrate preincubated for 2 mins followed by substrate addition in presence of TMPD by spectrophotometric analysis; details: read-out: IC50
Sequence (P23219 whole entry): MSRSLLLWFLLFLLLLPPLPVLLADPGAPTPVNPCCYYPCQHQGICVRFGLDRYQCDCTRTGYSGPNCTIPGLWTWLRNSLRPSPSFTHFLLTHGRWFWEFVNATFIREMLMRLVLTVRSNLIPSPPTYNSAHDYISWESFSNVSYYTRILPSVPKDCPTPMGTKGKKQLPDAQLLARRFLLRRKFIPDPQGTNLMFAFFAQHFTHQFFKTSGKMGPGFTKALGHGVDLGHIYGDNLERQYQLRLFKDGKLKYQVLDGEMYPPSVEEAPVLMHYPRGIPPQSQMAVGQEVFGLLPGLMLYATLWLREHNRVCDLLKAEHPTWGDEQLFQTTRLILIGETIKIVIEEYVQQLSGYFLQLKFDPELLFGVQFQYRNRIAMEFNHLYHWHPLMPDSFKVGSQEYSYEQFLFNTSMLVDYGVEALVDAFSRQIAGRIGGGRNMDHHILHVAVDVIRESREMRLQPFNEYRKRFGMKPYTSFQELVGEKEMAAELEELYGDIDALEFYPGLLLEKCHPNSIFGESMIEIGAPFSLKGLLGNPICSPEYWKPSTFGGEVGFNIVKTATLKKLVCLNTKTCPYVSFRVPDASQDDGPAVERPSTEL
pIC50: −log10 of the molar value.
assay metric: pIC50

a. Cc1cc(C)c2c(OC(C)C(=O)O)nsc2n1 (stereo not given)
b. Cc1cc(C)c2c(=O)n(CCCC(=O)N3CCN(c4cccc(Cl)c4)CC3)sc2n1
input: For the pair a and b , which member has the lower pIC50 number? Let me know the label of the one you choose.
output: b
(b: 3.14, a: 3.64)

I. CCC(C(=O)N1CCN(c2ccccc2)CC1)n1sc2nc(C)cc(C)c2c1=O (stereo not given)
II. O=C(CCn1sc2ccccc2c1=O)N1CCN(c2cccc(Cl)c2)CC1
III. Cc1cc(C)c2c(=O)n(CCCN3CCN(c4cccc(Cl)c4)CC3)sc2n1
input: Please rank these molecules by pIC50 in descending order. Output the labels ranked as instructed.
output: I, II, III
(I: 3.81, II: 3.48, III: 3.09)

I. Cc1cc(C)c2c(=O)n(CCC(=O)N3CCN(c4ccccc4)CC3)sc2n1
II. COc1cc2c(cc1OC)CN(C(=O)CCn1sc3nc(C)cc(C)c3c1=O)CC2
input: Task for the reader: decide whether I or II has the larger pIC50. Let me know the label of the one you choose.
output: I

1. Cc1cc(C)c2c(=O)n(CCCC(=O)O)sc2n1
2. Cc1cc(C)c2c(OCCCC(=O)N3CCN(c4cccc(Cl)c4)CC3)nsc2n1
input: Task for the reader: decide whether 1 or 2 has the larger pIC50. Let me know the label of the one you choose.
output: 1
(1: 3.63, 2: 3.09)

I. Cc1cc(C)c2c(=O)n(CN(C)CCNc3ccccc3)sc2n1
II. Cc1cc(C)c2c(=O)n(CC(=O)N3CCN(c4cccc(Cl)c4)CC3)sc2n1
input: Task for the reader: decide whether I or II has the larger pIC50. Let me know the label of the one you choose.
output: I
(I: 3.66, II: 3.43)
